test system: Rattus norvegicus; assay: Percent inhibition of histamine induced gastric acid secretion in pylorus-ligated rats at 100 mg/Kg intraduodenal dose; conditions: Stomach
The reader will find reported inhibition in vivo at 100 mg/kg values listed item by item below.

# molecule, inhibition in vivo at 100 mg/kg / %
measured = [
    ("COc1cc(OC)c(OC)cc1C[S+]([O-])c1ncccc1C(=O)Nc1ccncc1 (configuration not stated)", 21.7),
    ("COCOc1cc(OC)ccc1C[S+]([O-])c1ncccc1C(=O)Nc1ccncc1 (configuration not stated)", 37.7),
    ("COc1ccc(C[S+]([O-])c2ncccc2C(=O)Nc2ccncc2)cc1 (configuration not stated)", 44.4),
    ("COc1cccc(OC)c1C[S+]([O-])c1ncccc1C(=O)Nc1ccncc1 (configuration not stated)", 60.7),
    ("O=C(Nc1ccc2ncccc2c1)c1cccnc1[S+]([O-])C(c1ccccc1)c1ccccc1 (configuration not stated)", 21.7),
    ("O=C(Nc1ccncc1)c1cccnc1[S+]([O-])C(c1ccccc1)c1ccccc1 (configuration not stated)", 30.2),
    ("Cc1ccc(C(c2ccc(C)cc2)[S+]([O-])c2ncccc2C(=O)Nc2cccc3ncccc23)cc1 (configuration not stated)", 30.4),
]

* * *

target: Potassium-transporting ATPase (Oryctolagus cuniculus); experiment: Inhibition of [14C]aminopyrine (AP) accumulation stimulated by dibutyryl cyclic AMP in isolated rabbit parietal cells
pIC50: −log10 of the molar value.
# maps each entry to its pIC50
readout name: pIC50

# molecule, readout name, numeric value
data = [
    ("COc1ccc(C[S+]([O-])c2ncccc2C(=O)Nc2ccncc2)c(OC)c1C (stereo not drawn)", "pIC50", 4.78),
    ("COc1ccc(C[S+]([O-])c2ncccc2C(=O)Nc2ccncc2)c(OC)c1 (stereo not drawn)", "pIC50", 6.23),
    ("Cc1ccc(C(c2ccc(C)cc2)[S+]([O-])c2ncccc2C(=O)Nc2ccncc2)cc1 (stereo not drawn)", "pIC50", 5.82),
    ("COc1cc(OC)c(C[S+]([O-])c2ncccc2C(=O)Nc2ccncc2)c(OC)c1 (stereo not drawn)", "pIC50", 5.92),
    ("CCOc1cc(OC)ccc1C[S+]([O-])c1ncccc1C(=O)Nc1ccncc1 (stereo not drawn)", "pIC50", 6.35),
    ("COc1ccc(C[S+]([O-])c2ncccc2C(=O)Nc2ccncc2)c(OCCF)c1 (stereo not drawn)", "pIC50", 5.77),
    ("COc1ccc(C[S+]([O-])c2ncccc2C(=O)Nc2ccncc2)c(OCCO)c1 (stereo not drawn)", "pIC50", 4.23),
    ("CCOc1ccc(C[S+]([O-])c2ncccc2C(=O)Nc2ccncc2)c(OCC)c1 (stereo not drawn)", "pIC50", 6.40),
]

FYI, the data here is from ChEMBL document CHEMBL1130286.
